Sourced from paper PMC12261321

- Test system: P. aeruginosa PAO1
- test_name: Compound intracellular accumulation in P. aeruginosa PAO1
- Format: cell-based
- condition_parameters: cells treated with 30 µM compound
Param threshold (200 nmol/1012 CFU) applies to Intracell. Accum, P. aeruginosa PAO1; output Satisfied when value >= threshold, Not satisfied when value < threshold.

# compound, cat
measured = [
    ("O=C1NC(=O)c2c(NCc3cccc(Cl)c3O)cccc21 [KM-5-30]", "Not satisfied"),
    ("O=C1NC(=O)c2c(NCc3c(O)cccc3Cl)cccc21 [KM-5-29]", "Satisfied"),
    ("O=C1NC(=O)c2c(NCc3cccc(F)c3O)cccc21 [EB-5-80]", "Not satisfied"),
    ("O=C1NC(=O)c2c(NCc3cc(Br)cc(F)c3O)cccc21 [SB-16-118]", "Not satisfied"),
    ("O=C1NC(=O)c2c(NCc3cc(Br)ccc3O)cccc21 [KM-5-35]", "Satisfied"),
    ("O=C1NC(=O)c2c(NCc3cc(Br)c(O)cc3O)cccc21 [SB-16-137]", "Not satisfied"),
]
